# TARGET_ENTITY: BACE1 (Homo sapiens)
# Sequence (P56817 46-501, species assumed): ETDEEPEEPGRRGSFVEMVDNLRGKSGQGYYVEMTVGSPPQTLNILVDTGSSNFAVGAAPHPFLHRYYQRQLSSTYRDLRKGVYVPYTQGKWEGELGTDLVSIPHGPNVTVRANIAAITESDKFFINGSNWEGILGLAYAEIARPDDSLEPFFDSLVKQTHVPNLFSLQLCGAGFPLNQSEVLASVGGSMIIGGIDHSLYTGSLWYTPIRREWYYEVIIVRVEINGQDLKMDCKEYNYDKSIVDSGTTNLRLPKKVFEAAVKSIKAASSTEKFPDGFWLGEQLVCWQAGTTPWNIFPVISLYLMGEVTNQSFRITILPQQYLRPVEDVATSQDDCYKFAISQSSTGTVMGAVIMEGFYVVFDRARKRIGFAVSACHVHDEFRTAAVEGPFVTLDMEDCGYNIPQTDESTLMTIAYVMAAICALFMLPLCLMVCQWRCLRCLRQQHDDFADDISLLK
# PROTOCOL_DESCRIPTION: In vitro enzymatic BACE FRET (fluorescence resonance energy transfer) assay
# Assay type: biochemical
# SETTINGS: read-out: BACE 1 FRET assay
ASSAY_METRIC: IC50 (nM)

Here is how some compounds turned out for IC50.
C=CC[C@H](NC(=O)COC)[C@H](O)CN[C@H]1CC2(CCC2)Oc2c(-c3ccncc3)cc(CC(C)(C)C)cc21 :: 170
CCC[C@H](NC(=O)[C@@H]1CCCO1)[C@H](O)CN[C@H]1CC2(CCC2)Oc2c1cc(CC(C)(C)C)nc2Cl :: 533
C=CC[C@H](NC(C)=O)[C@H](O)CN[C@H]1CC2(CCC2)Oc2c1cc(CC(C)(C)C)nc2Nc1ccccc1 :: 26

(P) COC[C@H](NC(C)=O)[C@H](O)CN[C@H]1CC2(CCC2)Oc2ncc(CC(C)(C)C)cc21
(Q) C=CC[C@H](NC(=O)COC)[C@H](O)CN[C@H]1CC2(CCC2)Oc2c(-c3cncs3)cc(CC(C)(C)C)cc21
Between the entries labeled P and Q , whose measured IC50 is lower? Field: selected label. Fill in the label of the entry you choose. Q

(I) C=CC[C@H](NC(=O)[C@H]1CCC(=O)O1)[C@H](O)CN[C@H]1CC2(CCC2)Oc2ncc(CC(C)(C)C)cc21
(II) C=CC[C@H](NC(=O)COC)[C@H](O)CN[C@H]1CC2(CCC2)Oc2c1cc(CC(C)(C)C)nc2-c1nccn1C
(III) C=CC[C@H](NC(=O)COC)[C@H](O)CN[C@H]1CC2(CCC2)Oc2ncc(C(F)(F)C(C)(C)C)cc21
(IV) C=CC[C@H](NC(=O)COC)[C@H](O)CN[C@H]1CC2(CCC2)Oc2c1cc(CC(C)(C)C)cc2-n1ccnc1
(V) C=CC[C@H](NC(=O)COC)[C@H](O)CN[C@H]1CC2(CCC2)Oc2c1cc(CC(C)(C)C)nc2Nc1nccs1
Could you please order the items by IC50, going from the lowest number to the highest? Write the labels in rank order as requested. I, V, IV, II, III
(I: 15 nM, V: 54 nM, IV: 442 nM, II: 1230 nM, III: 2410 nM)

(P) C=CC[C@H](NC(=O)COC)[C@H](O)CN[C@H]1CC2(CCC2)Oc2c1cc(CC(C)(C)C)nc2-c1cncn1C
(Q) C=CC[C@H](NC(=O)CCC(C)(C)C)[C@H](O)CN[C@H]1CC2(CCC2)Oc2ncc(CC(C)(C)C)cc21
(R) C=CC[C@H](NC(=O)C1COC(c2cccnc2)O1)[C@H](O)CN[C@H]1CC2(CCC2)Oc2ncc(CC(C)(C)C)cc21 (some centres unmarked)
(S) C=CC[C@H](NC(=O)[C@@H]1CN(Cc2nccs2)CCO1)[C@H](O)CN[C@H]1CC2(CCC2)Oc2ncc(CC(C)(C)C)cc21
(T) C=CC[C@H](NC(=O)COC)[C@H](O)CN[C@H]1CC2(CCC2)Oc2c1cc(CC(C)C)cc2-n1ccnc1
Could you please order the items by IC50, going from the lowest number to the highest? Write the labels in rank order as requested. S, T, P, R, Q
(S: 128 nM, T: 338 nM, P: 946 nM, R: 2160 nM, Q: 9250 nM)

(P) C#CC[C@H](NC(=O)[C@@H](C)OC)[C@H](O)CN[C@H]1CC2(CCC2)Oc2c1cc(CC(C)(C)C)nc2NC
(Q) C#CC[C@H](NC(C)=O)[C@H](O)CNC1CC2(CCC2)Oc2c1cc(CC(C)(C)C)nc2NC (some centres unmarked)
Between the entries labeled P and Q , whose measured IC50 is lower? Field: selected label. Fill in the label of the entry you choose. Q
(Q: 78 nM, P: 1220 nM)

Taken from patent US8633315B2.
